test: Half life in Sprague-Dawley rat at 20 mg/kg, iv; format: ADME, organism-based; conditions: in vivo
reported_metric: half-life (h)
Give just the numeric value; h need not be written.

Query block: Give me measured half-life, please, for this compound: `CCOC(=O)/C=C/c1cc(OC)c(OC(=O)c2nc(C)c(C)nc2C)c(OC)c1`
Result block: 3.03

###

test system: ECV-304; test: Protection against H2O2-induced damage in human ECV304 cells preincubated for 24 hrs followed by H2O2 addition and measured after 12 hrs by MTT assay; type: functional, cell-based
reported_metric: pEC50
Convention used: pEC50 is expressed as -log10 of the molar concentration.

compound=CNC(=N)NC(=O)c1nc(C)c(C)nc1C reported_metric=pEC50 data_value=4.01
compound=Cc1nc(C)c(C(=O)NC(=N)NCc2ccc(Cl)c(Cl)c2)nc1C reported_metric=pEC50 data_value=4.03
compound=Cc1nc(C)c(C(=O)NC(=N)NCc2cccc(Cl)c2)nc1C reported_metric=pEC50 data_value=4.23

Continue with the compound presented below.
Query block: // Input: Cc1nc(C)c(C)nc1C [LIGUSTRAZINE] . Output its pEC50 only.
Result block: 3.26
